test: qHTS assay to identify inhibitors of the type 1 interferon - major histocompatibility complex class I in skeletal muscle: Counter screen cell viability and HiBit confirmation (AID 1347412); settings: iHSKM muscle cells + IFN-b, HiBiT or CellTiter-Glo, 24 h; HiBiT unless noted; also: nearly all actives have a fitted effect of over 60% in size; also: potency is read from the fitted curve at half-maximal effect
Inconclusive results are not listed. Calls of active or inactive are those of the source. Calls follow the shape of the dose curve; as a rule, active = well fitted inhibition curve with a large enough effect; inconclusive = small, poorly fitted or top-dose-only effect; inactive = no such curve, though single readings can be large or run the other way.
MEASURED_QUANTITY: Potency

Would you please look over these solved cases?
{"COMPOUND": "CC(=O)OCC(=O)[C@@]1(O)CC[C@H]2[C@@H]3CCC4=CC(=O)C=C[C@]4(C)[C@H]3[C@@H](O)C[C@@]21C", "Potency": "inactive"}
{"COMPOUND": "C[C@]12CCC(=O)C=C1CC[C@H]1[C@@H]3CC[C@](O)(C(=O)CO)[C@@]3(C)C[C@H](O)[C@@]12F", "Potency": "inactive"}
{"COMPOUND": "CC(=O)OCC(=O)[C@@]12N=C(C)O[C@@H]1C[C@H]1[C@@H]3CCC4=CC(=O)C=C[C@]4(C)[C@H]3[C@@H](O)C[C@@]12C", "Potency": "inactive"}
{"COMPOUND": "CCCCC(CC)CN=C(N)NC(N)=NCCCCCCN=C(N)NC(N)=NCC(CC)CCCC (stereo unspecified)", "Potency": "22.2 µM [Viability] (active)"}
{"COMPOUND": "C[C@]12C=CC(=O)C=C1CC[C@@H]1[C@@H]2[C@@H](O)C[C@@]2(C)[C@H]1CC[C@]2(O)C(=O)CO", "Potency": "inactive"}

Here is another compound to look at.
For the compound shown here, CC(C)n1nc(-c2cc3cc(O)ccc3[nH]2)c2c(N)ncnc21 , give the reported Potency.
3.52 µM (active)

###

system: C2A; experiment: qHTS profiling for inhibitors of Plasmodium falciparum proliferation (AID 504749); also: nearly all actives have a fitted effect of over 60% in size; conditions: P. falciparum in erythrocytes, SYBR Green DNA, 72 h; series mostly up to 28.7 µM
Inconclusive results are not listed. Active and inactive are the calls of the source. Calls follow the shape of the dose curve; as a rule, active = well fitted inhibition curve with a large enough effect; inconclusive = small, poorly fitted or top-dose-only effect; inactive = flat fitted curve, though single readings scatter.
MEASURED_QUANTITY: outcome

Would you please look over these solved cases?
{"MOLECULE": "Oc1ccc(Cl)c2cccnc12", "outcome": "inactive"}
{"MOLECULE": "CN(C)/N=N/c1nc[nH]c1C(N)=O", "outcome": "inactive"}
{"MOLECULE": "CCN(CC)CCOC(=O)C(c1ccccc1)C1CCCCC1 (stereo unspecified)", "outcome": "inactive"}
{"MOLECULE": "CCCCC1=NC2(CCCC2)C(=O)N1Cc1ccc(-c2ccccc2-c2nn[nH]n2)cc1", "outcome": "inactive"}
{"MOLECULE": "O=S1(=O)c2cccc3cccc(c23)N1CCCN1CCN(c2ccc(F)cc2)CC1", "outcome": "inactive"}

Here is another molecule to look at.
Which outcome is reported with C2A for this entry: NCCCC[C@H](N[C@@H](CCc1ccccc1)C(=O)O)C(=O)N1CCC[C@H]1C(=O)O ?
inactive

###

target: Calcium and integrin-binding protein 1 (Homo sapiens) (UniProt Q99828); experiment: Primary qHTS for Identification of Calcium Integrin Binding Protein 1 (CIB1) Competitor (AID 1508620); conditions: CIB1-GST / FITC-alphaIIb peptide fluorescence polarization; series mostly up to 114 µM;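 also: GST tagged CIB1 binding a fluorescein labelled alphaIIb integrin peptide tracer; top concentration of the series differs between compounds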
Sequence (Q99828 whole entry, looked up): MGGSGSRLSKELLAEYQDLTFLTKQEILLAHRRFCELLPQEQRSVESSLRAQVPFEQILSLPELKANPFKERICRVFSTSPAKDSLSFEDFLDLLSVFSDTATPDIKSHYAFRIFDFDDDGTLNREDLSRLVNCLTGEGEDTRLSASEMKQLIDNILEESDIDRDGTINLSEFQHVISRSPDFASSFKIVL
Inconclusive results are not listed. The source made the active and inactive calls. Calls follow the shape of the dose curve; as a rule, active = well fitted inhibition curve with a large enough effect; inconclusive = small, poorly fitted or top-dose-only effect; inactive = flat fitted curve, though single readings scatter.
MEASURED_QUANTITY: outcome

Would you please look over these solved cases?
{"COMPOUND": "CC(C)(C)NC(=O)[C@@H]1CN(Cc2cccnc2)CCN1C[C@@H](O)C[C@@H](Cc1ccccc1)C(=O)N[C@H]1c2ccccc2C[C@H]1O", "outcome": "inactive"}
{"COMPOUND": "CN(C)CC/C=C1/c2ccccc2COc2ccc(CC(=O)O)cc21", "outcome": "inactive"}
{"COMPOUND": "COc1cc(/C=C/C(=O)O[C@H]2CC[C@]34C[C@]35CC[C@]3(C)[C@@H]([C@H](C)CCC=C(C)C)CC[C@@]3(C)[C@@H]5CC[C@H]4C2(C)C)ccc1O", "outcome": "inactive"}
{"COMPOUND": "O=C1c2ccccc2C(=O)C1c1ccccc1", "outcome": "inactive"}
{"COMPOUND": "C=C1C[C@H]2[C@@H]3C=C(C)C4=CC(=O)CC[C@]4(C)[C@H]3CC[C@]2(C)[C@@]1(OC(C)=O)C(C)=O", "outcome": "inactive"}
{"COMPOUND": "CC(=O)[C@H]1CC[C@H]2[C@@H]3C[C@H](C)C4=CC(=O)CC[C@]4(C)[C@H]3[C@@H](O)C[C@]12C", "outcome": "inactive"}
{"COMPOUND": "CC/C(=C(/CC)c1ccc(O)cc1)c1ccc(O)cc1", "outcome": "inactive"}
{"COMPOUND": "CC(=O)N(O)CCCCCNC(=O)CCC(=O)N(O)CCCCCNC(=O)CCC(=O)N(O)CCCCCN", "outcome": "inactive"}
{"COMPOUND": "C[C@@H]1C[C@H]2[C@@H]3CCC4=CC(=O)C=C[C@]4(C)[C@@]3(F)[C@@H](O)C[C@]2(C)[C@H]1C(=O)CO", "outcome": "inactive"}
{"COMPOUND": "c1ccc(CNCCNCc2ccccc2)cc1", "outcome": "inactive"}

For the compound shown here, C=CCc1ccc(O)c(OC)c1 , give the reported outcome.
inactive

For the compound shown here, CC(C)NC[C@@H](O)COc1cccc2ccccc12 , give the reported outcome.
inactive

For the compound shown here, CNC(=O)CN(CCN(CCN(CC(=O)[O-])CC(=O)NC)CC(=O)[O-])CC(=O)[O-].O.[Gd+3] , give the reported outcome.
inactive

For the compound shown here, Cc1cccc(C)c1NC(=O)CN1CCN(CCCC(c2ccc(F)cc2)c2ccc(F)cc2)CC1 , give the reported outcome.
inactive

For the compound shown here, CC(C)(C)CC(C)(C)c1ccc(O)c(Cc2ccc(Cl)cc2Cl)c1 , give the reported outcome.
inactive

For the compound shown here, CCCCC(=O)O[C@]1(C(=O)CO)CC[C@H]2[C@@H]3CCC4=CC(=O)CC[C@]4(C)[C@H]3[C@@H](O)C[C@@]21C , give the reported outcome.
inactive

For the compound shown here, NC[C@H]1O[C@H](O[C@H]2[C@H](O[C@@H]3O[C@H](CO)[C@@H](O)[C@H]3O)C(O)[C@H](N)C[C@@H]2N)[C@H](N)[C@@H](O)[C@@H]1O (stereo partly drawn) , give the reported outcome.
inactive

For the compound shown here, CC(=O)OCC(=O)[C@@]12OC(C)(C)O[C@@H]1C[C@H]1[C@@H]3C[C@H](F)C4=CC(=O)C=C[C@]4(C)[C@@]3(F)[C@@H](O)C[C@@]12C , give the reported outcome.
inactive

###

assay: qHTS of pediatric cancer cell lines to identify multiple opportunities for drug repurposing: Primary screen for BT-37 cells (AID 1347094); details: BT-37 viability, CellTiter-Glo luminescence, 48 h; series mostly up to 57.3 µM
Inconclusive results are not listed. Activity calls are given as the source filed them. Calls follow the shape of the dose curve; as a rule, active = well fitted cell-killing curve with a large enough effect; inconclusive = small, poorly fitted or top-dose-only effect; inactive = flat fitted curve, though single readings scatter.
Can you answer with just one of these options? active, inactive

{"COMPOUND": "Cc1ccc(C(=O)C(C)CN2CCCCC2)cc1 (stereo not given)", "LABEL_VALUE": "inactive"}
{"COMPOUND": "O=C1OC(c2ccc(O)cc2)(c2ccc(O)cc2)c2ccccc21", "LABEL_VALUE": "inactive"}
{"COMPOUND": "O=C1OC2(c3ccc(O)cc3Oc3cc(O)ccc32)c2ccccc21", "LABEL_VALUE": "inactive"}
{"COMPOUND": "Oc1cc(O)c2c(c1)O[C@H](c1ccc(O)c(O)c1)[C@H](O)C2", "LABEL_VALUE": "inactive"}
{"COMPOUND": "OC[C@@H](O)[C@@H](O[C@@H]1O[C@H](CO)[C@H](O)[C@H](O)[C@H]1O)[C@H](O)[C@@H](O)CO", "LABEL_VALUE": "inactive"}
{"COMPOUND": "CCCCS(=O)(=O)N[C@@H](Cc1ccc(OCCCCC2CCNCC2)cc1)C(=O)O", "LABEL_VALUE": "inactive"}
{"COMPOUND": "C[C@H](CCC(=O)O)[C@H]1CC[C@H]2[C@@H]3C(=O)C[C@@H]4CC(=O)CC[C@]4(C)[C@H]3CC(=O)[C@]12C", "LABEL_VALUE": "inactive"}
{"COMPOUND": "CCN(CC)CCNC(=O)COc1ccc(Cl)cc1", "LABEL_VALUE": "inactive"}

Answer briefly: the call reported for COc1cccc(CCc2ccccc2OCC(CN(C)C)OC(=O)CCC(=O)O)c1 (stereo not given) in this assay.
inactive

Answer briefly: the call reported for CC(C)n1nc(-c2cc3cc(O)ccc3[nH]2)c2c(N)ncnc21 in this assay.
active

Answer briefly: the call reported for COc1ccc(OC)c(C(O)CNC(=O)CN)c1 (stereo not given) in this assay.
inactive

Answer briefly: the call reported for CN1CCC[C@@H]1c1cccnc1 in this assay.
inactive

Answer briefly: the call reported for CC(=O)OCC(=O)[C@@]12N=C(C)O[C@@H]1C[C@H]1[C@@H]3CCC4=CC(=O)C=C[C@]4(C)[C@H]3[C@@H](O)C[C@@]12C in this assay.
inactive
